- Experimental system: CDC25A (Homo sapiens)
- Sequence (P30304 whole entry): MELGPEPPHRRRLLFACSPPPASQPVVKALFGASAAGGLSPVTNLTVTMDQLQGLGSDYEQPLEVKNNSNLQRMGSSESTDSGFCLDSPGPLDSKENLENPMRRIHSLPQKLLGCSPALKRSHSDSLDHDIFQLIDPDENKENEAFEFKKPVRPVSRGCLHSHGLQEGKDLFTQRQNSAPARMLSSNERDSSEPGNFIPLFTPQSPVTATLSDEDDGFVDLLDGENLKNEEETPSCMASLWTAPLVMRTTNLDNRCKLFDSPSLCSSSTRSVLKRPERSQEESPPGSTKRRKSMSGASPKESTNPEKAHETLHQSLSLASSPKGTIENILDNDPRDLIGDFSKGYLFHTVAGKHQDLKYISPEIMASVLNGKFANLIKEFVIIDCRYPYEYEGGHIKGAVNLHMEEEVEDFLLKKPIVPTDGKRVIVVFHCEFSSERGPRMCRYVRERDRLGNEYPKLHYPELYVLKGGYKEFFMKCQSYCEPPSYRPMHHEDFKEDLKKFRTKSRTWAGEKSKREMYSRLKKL
pIC50: −log10 of the molar value.
Endpoint name: pIC50

1) Cc1cc(=O)[nH]c2c(O)c3c(cc12)c(C)cc(=O)n3C [Example 5]    6.82

====

- Experimental system: CDC25B (Homo sapiens, UniProt P30305)
- Sequence (P30305 whole entry): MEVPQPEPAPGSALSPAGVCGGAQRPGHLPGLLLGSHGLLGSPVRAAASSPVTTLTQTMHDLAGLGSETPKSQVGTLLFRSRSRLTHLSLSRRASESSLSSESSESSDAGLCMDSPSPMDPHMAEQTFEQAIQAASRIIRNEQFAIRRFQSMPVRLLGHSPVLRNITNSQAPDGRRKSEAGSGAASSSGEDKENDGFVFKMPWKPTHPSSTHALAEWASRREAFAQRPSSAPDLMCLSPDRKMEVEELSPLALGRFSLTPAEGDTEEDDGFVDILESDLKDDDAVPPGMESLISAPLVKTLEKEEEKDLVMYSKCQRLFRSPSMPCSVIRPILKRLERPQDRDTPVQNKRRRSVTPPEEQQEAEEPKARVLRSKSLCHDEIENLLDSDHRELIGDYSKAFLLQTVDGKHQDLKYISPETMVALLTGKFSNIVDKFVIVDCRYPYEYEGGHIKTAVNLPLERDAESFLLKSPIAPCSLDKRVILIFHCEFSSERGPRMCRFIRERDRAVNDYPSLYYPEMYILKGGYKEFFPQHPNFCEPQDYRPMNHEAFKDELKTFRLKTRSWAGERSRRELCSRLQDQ
Endpoint name: IC50

1. Cc1cc(=O)[nH]c2c(O)c3c(cc12)c(C)cc(=O)n3C [Example 5]    230 nM

====

- Experimental system: CDC25C (Homo sapiens, UniProt P30307)
- Sequence (P30307 1-473): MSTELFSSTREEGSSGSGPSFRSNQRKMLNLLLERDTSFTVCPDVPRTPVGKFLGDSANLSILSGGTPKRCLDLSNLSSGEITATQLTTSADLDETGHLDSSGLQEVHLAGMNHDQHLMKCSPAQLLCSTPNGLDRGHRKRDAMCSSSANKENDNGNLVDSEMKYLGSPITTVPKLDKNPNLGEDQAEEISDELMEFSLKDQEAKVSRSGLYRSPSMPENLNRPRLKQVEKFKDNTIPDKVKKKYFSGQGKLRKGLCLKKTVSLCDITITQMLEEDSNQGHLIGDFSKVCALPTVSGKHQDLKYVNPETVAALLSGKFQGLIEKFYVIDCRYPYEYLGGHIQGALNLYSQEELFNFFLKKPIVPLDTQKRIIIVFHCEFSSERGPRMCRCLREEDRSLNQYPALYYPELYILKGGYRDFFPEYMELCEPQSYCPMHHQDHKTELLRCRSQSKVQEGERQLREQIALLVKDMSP
- Measurement notes: CDC25C Enzyme Assay (hydrolysis of fluorogenic substrate OMFP)
- Assay type: biochemical
- Condition label: OMFP 90 µM, ambient temperature, assay run time 20 minutes; read-out: IC50
- Method: The assay principle was hydrolysis of an artificial fluorogenic substrate of CDC25C, 3-0-methyl-fluorescein monophosphate (OMFP). […] The assay was performed in 96 well microtiter plates (Greiner 96 well black FIA plates) at ambient temperature. […] Ortho-vanadate was used as a reference inhibitor. […] The microtiter plates were analyzed using a Tecan Ultra fluorescence reader.
pIC50: −log10 of the molar value.
Endpoint name: pIC50

1) CCCc1c(C)c(=O)[nH]c2c(O)c3[nH]c(=O)c(C)c(CCC)c3cc12    6.07
2) Cc1cc(=O)n(C)c2c(O)c3c(cc12)c(C)cc(=O)n3C    4.84
3) Cn1c(=O)cc(CO)c2cc3c(CO)cc(=O)n4c3c(c21)OC4 [Example 4, 6'-hydroxynybomycin]    4.85
